Experiment: chemical genetic growth profiling, strain panel (AID 1159580);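 also: tested at 20 µM; growth read once vehicle control cultures reached saturation at 30 °C; 1 = growth at the plate median or of vehicle wells; lower values mean less growth of the strain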
Conditions: S. cerevisiae deletion strains, growth OD, locus YEL061C, strain CIN8 (second series), hits give low values
Out of some 5,500 compounds screened, about 2,000 (36%) were called active. Another 18% or so got no clear call; they are omitted. The list shows a part of the results.
So basically: is normalized growth under 1? Then class 1. Not under? Then class 0.

COMPOUND	LABEL VALUE
C=C1C2CC[C@@]3(C)[C@H](c4ccoc4)OC(=O)C[C@]13O[C@H]1CC(=O)C(C)(C)C(CC(=O)OC)[C@@]21C (some centres undefined)	class 1
C=C1C2CC[C@@]3(C)[C@H](c4ccoc4)OC(=O)C[C@]13O[C@H]1CC(O)C(C)(C)C(CC(=O)OC)[C@@]21C (some centres undefined)	class 1

# strict comparison: is reported normalized growth < 1? input = CCOC(=O)[C@H](CCc1ccccc1)N[C@@H](C)C(=O)N1Cc2ccccc2C[C@H]1C(=O)O
class 0

----------
Assay: chemical genetic growth profiling, strain panel (AID 1159580);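 also: tested at 20 µM; growth read once vehicle control cultures reached saturation at 30 °C; 1 = growth at the plate median or of vehicle wells; lower values mean less growth of the strain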
Conditions: S. cerevisiae deletion strains, growth OD, locus YER002W, strain NOP16
About 2,000 (36%) of roughly 5,500 compounds were called active. Not shown: some 18% with an inconclusive outcome. Rule as the data show it: active = normalized growth mostly below about 0.91 (no sharp cut-off); inconclusive = no clear call, values can overlap the other calls; inactive = mostly above about 0.92. Some of the results follow.
Hello, when you answer, please use one of the following outcomes: 1 (yes) = active, 0 (no) = inactive

Answered cases to consult:
> print(dat)
                                   molecule  label.value
1               C[C@H](N)CN1CCc2ccc(Br)cc21       0 (no)
2  Nc1ccn([C@@H]2O[C@H](CO)[C@@H](O)C2O)c(=O)n1 (some centres not stated)       0 (no)
3  Cc1nc2sccn2c(=O)c1CCN1CCC(=C(c2ccc(F)cc2)c2ccc(F)cc2)CC1      1 (yes)
4          N[C@@H](Cn1oc(=O)[nH]c1=O)C(=O)O       0 (no)

Hi, sorry to bother you, what did the test record for O=[N+]([O-])c1cccc2c(Br)[nH]nc12 ?
0 (no)

Hi, sorry to bother you, what did the test record for O=c1[nH]cnc2[nH]ncc12 ?
0 (no)

Hi, sorry to bother you, what did the test record for CC(CN(C)C)CN1c2ccccc2CCc2ccccc21 (configuration not stated) ?
0 (no)

Hi, sorry to bother you, what did the test record for NNCCc1ccccc1 ?
0 (no)

Hi, sorry to bother you, what did the test record for c1ccc2nc(N3CCNCC3)ccc2c1 ?
0 (no)

Hi, sorry to bother you, what did the test record for CC12CC3CC(C)(C1)CC(N)(C3)C2 ?
0 (no)

Hi, sorry to bother you, what did the test record for Cc1[nH]c(=O)c(C#N)cc1-c1ccncc1 ?
0 (no)

Hi, sorry to bother you, what did the test record for CCn1cnc2c(Nc3cccc(Cl)c3)nc(N[C@@H]3CCCC[C@@H]3N)nc21 ?
0 (no)

----------
Test: chemical genetic growth profiling, strain panel (AID 1159580);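 also: tested at 20 µM; growth read once vehicle control cultures reached saturation at 30 °C; 1 = growth at the plate median or of vehicle wells; lower values mean less growth of the strain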
Conditions: S. cerevisiae deletion strains, growth OD, locus YNR030W, strain Alg12, hits give low values
Screen size: about 5,500 compounds; about 2,000 (36%) were called active. Inconclusive results (about 18%) are left out. This is one part of the list.
The following compounds are listed with their measured normalized growth values.
The answer should be a number; do not append a unit.

Please review the following examples before continuing.
> print(dat)
                                   compound           quantity  readout.value
1           N/C(=N/O)c1csc(-c2ccc(F)cc2F)n1  normalized growth          0.983
2  COc1ccc2c(c1)CCCN2C(=O)NC(=O)c1c(F)cccc1Cl  normalized growth              1
3  Cc1cc(CN2CC(C)OC(C)C2)cc(C)c1O (stereo not drawn)  normalized growth          0.992

Let's switch to this compound now.
What normalized growth value was documented for this compound, Cc1ccc(/C(N)=N\O)cc1F ?
0.989
